ASSAY TARGET: Fyn (UniProt P06241)
Sequence (P06241 whole entry, looked up): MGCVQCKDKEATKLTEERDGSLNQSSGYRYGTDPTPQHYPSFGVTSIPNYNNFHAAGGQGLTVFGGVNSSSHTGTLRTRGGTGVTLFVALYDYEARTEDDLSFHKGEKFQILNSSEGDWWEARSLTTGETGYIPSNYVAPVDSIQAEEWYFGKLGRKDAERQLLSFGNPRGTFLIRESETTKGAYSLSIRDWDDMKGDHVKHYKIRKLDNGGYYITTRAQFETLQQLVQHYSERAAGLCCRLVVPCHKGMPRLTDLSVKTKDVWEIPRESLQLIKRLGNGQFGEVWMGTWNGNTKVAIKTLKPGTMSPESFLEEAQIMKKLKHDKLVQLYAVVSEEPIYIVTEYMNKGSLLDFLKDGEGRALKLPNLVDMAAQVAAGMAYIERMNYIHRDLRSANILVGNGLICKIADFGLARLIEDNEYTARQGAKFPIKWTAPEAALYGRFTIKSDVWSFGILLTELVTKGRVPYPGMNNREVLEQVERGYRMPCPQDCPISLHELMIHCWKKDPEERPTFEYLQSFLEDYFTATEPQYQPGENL
ASSAY EXPLANATION: phosphorylation enrichment, bacterial display (enrichment ratio); higher = better substrate or ligand; peptides without Tyr show the background;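 note: 11-residue human phosphosite peptides and single-mutation variants displayed on the E. coli surface, counted by deep sequencing, each peptide's frequency after selection divided by its frequency in the unselected input library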;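 note: frequency after pTyr selection over input frequency; kinase dosed for 20-30% of maximal phosphorylation in three min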
Decide using phosphorylation enrichment: a value greater than or equal to 0.5 is Yes, a smaller one is No.

seq_text="ATKNDYWAMLA [WWOX_Y287_P282A]" cat=No
seq_text="SSTASYFKAPG [RFX2_Y108_E110K]" cat=No
seq_text="ERLWDYGMSSS [F8_Y1728]" cat=No
seq_text="RGEKQYLAAPL [ALOX12_Y295]" cat=No

Could you now look at the following sequence, please?
**Query** Does EKEQNYDLTQV [ECD_Y448_E452Q] have a reported phosphorylation enrichment of at least 0.5?
**Result** Yes

---

Test system: AncSZ
ASSAY EXPLANATION: phosphorylation enrichment, bacterial display (enrichment ratio); higher = better substrate or ligand; peptides without Tyr show the background
Decide using phosphorylation enrichment: a value greater than or equal to 1 is YES, a smaller one is NO.

Some solved cases for reference:
seq_text="LESILYESSVV [TRPV4_Y91_T89I]" cat=YES
seq_text="HNMPIYEGYAL [ACTA1_Y168_V165M]" cat=YES
seq_text="ISDDKYGRIRL [ARCN1_Y310]" cat=NO
seq_text="SFLSFYTSHVQ [NEFL_Y443_P440L_YF]" cat=YES
seq_text="KENITYMKSEQ [L1TD1_Y24_R27S]" cat=NO

**Query** Does MGRVKYGAFIN [GLB1_Y485_N484K_YF] have a reported phosphorylation enrichment of at least 1?
**Result** NO

**Query** Does SSVKLYRVYCD [FGB_Y266_P265L] have a reported phosphorylation enrichment of at least 1?
**Result** YES

**Query** Does EIELAYRRRPP [GRIN2B_Y1109] have a reported phosphorylation enrichment of at least 1?
**Result** NO

**Query** Does SHISGYAALRR [RAPH1_Y1226_T1228A] have a reported phosphorylation enrichment of at least 1?
**Result** NO

**Query** Does AFGTVYKGLWI [EGFR_Y727] have a reported phosphorylation enrichment of at least 1?
**Result** YES

**Query** Does TAALWYIFSHT [ENG_Y612_YF] have a reported phosphorylation enrichment of at least 1?
**Result** YES

**Query** Does ADFFDYGHGLS [KHDRBS3_Y304_YF] have a reported phosphorylation enrichment of at least 1?
**Result** NO

**Query** Does VTHKEYFIFLE [CAMKV_Y95_R92H] have a reported phosphorylation enrichment of at least 1?
**Result** YES

**Query** Does DSSIRYLQEIY [FGG_Y135] have a reported phosphorylation enrichment of at least 1?
**Result** NO

---

ASSAY TARGET: EPHB1 (UniProt P54762)
Sequence (P54762 whole entry, looked up): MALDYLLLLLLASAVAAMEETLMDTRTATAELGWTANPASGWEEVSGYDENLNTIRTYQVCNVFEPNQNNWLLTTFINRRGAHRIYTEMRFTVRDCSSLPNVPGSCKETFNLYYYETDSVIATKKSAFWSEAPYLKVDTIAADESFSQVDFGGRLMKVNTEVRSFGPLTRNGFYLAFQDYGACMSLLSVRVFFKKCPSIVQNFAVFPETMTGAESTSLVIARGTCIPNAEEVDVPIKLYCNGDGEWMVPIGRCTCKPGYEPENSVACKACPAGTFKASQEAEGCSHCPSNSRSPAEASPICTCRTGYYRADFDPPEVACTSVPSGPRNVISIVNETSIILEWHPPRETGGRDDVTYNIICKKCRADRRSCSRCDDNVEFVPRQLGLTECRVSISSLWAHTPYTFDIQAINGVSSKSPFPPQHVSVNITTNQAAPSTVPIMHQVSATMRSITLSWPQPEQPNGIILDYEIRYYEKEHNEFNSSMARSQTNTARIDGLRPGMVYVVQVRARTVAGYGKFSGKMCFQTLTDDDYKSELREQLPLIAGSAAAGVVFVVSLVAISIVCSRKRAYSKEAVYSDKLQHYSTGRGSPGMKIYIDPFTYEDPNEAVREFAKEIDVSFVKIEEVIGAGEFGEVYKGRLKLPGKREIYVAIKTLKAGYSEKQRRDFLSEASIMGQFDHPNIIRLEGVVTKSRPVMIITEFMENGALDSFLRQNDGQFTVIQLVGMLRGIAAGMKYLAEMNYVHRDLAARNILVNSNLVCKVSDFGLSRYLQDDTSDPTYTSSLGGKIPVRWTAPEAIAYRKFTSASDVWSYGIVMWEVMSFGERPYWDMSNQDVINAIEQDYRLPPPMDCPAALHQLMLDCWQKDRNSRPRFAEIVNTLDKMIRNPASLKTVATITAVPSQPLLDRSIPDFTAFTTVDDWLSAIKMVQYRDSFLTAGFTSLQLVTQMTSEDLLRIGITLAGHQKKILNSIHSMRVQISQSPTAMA
ASSAY EXPLANATION: phosphorylation enrichment, bacterial display (enrichment ratio); higher = better substrate or ligand; peptides without Tyr show the background
Measured phosphorylation enrichment, listed per entry.
Just the number, please, no unit after it.

Before answering, review these 2 worked examples.
seq_text="LTSKPYAFTAQ [NDUFS1_Y236_R241Q]" quantity_name="phosphorylation enrichment" assay_value=0.469
seq_text="LHRAHYDLHHT [AHSG_Y314_R317H]" quantity_name="phosphorylation enrichment" assay_value=0.69

Sample SLLKDYSPQLQ [OTC_Y345_T343K] ; phosphorylation enrichment observed: 0.554

Sample PQDVTYARLHS [LILRB4_Y412_Q414R] ; phosphorylation enrichment observed: 0.808

Sample RGYRQYAYDGK [HLA-A_Y140_D140Y] ; phosphorylation enrichment observed: 0.674

Sample LENSTYQYICV [CRB1_Y760_R764C] ; phosphorylation enrichment observed: 11.9

Sample GRLGEYDIDEV [SMS_Y134_V132G] ; phosphorylation enrichment observed: 0.909

All figures here come from the supplement of paper PMC10065799.
